Cited source: patent US20060241177A1

system: Staphylococcus aureus (ATCC #29213); test: Broth microdilution MIC; type: cell-based; settings: Staphylococcus aureus, ATCC29213; Mueller Hinton Broth, 24 hours; read-out: SA/MH (MIC)
Reported MIC maps to class as: bin A = under 40 µg/mL, bin B = from 40 µg/mL up to 70 µg/mL, bin C = 70 µg/mL and over

Examples with answers:
                                   molecule                    target_under_test  label_value
0  C=CCNC(=O)[C@@H]1C(=C)C(=O)O[C@H]1CCCC (racemic)  Staphylococcus aureus (ATCC #29213)        bin B
1  C=C1C(=O)O[C@@H](CCCCCCCC)[C@@H]1C(=O)NCC(=O)OC (racemic)  Staphylococcus aureus (ATCC #29213)        bin A
2  C=CCNC(=O)[C@@H]1C(=C)C(=O)O[C@H]1CCCCCC (racemic)  Staphylococcus aureus (ATCC #29213)        bin B
3  C=C1C(=O)O[C@@H](CCCCCCCC)[C@@H]1C(=O)NCCO (racemic)  Staphylococcus aureus (ATCC #29213)        bin B
4  C=CCNC(=O)[C@H]1[C@H](CCCCCCCC)OC(=O)[C@H]1C (racemic)  Staphylococcus aureus (ATCC #29213)        bin C
5  C=CCNC(=O)[C@H]1[C@H](CCCCCCCC)OC(=O)[C@@H]1C (racemic)  Staphylococcus aureus (ATCC #29213)        bin C
6  C=CCNC(=O)[C@@H]1C(=C)C(=O)O[C@H]1CCCCCCCC (racemic)  Staphylococcus aureus (ATCC #29213)        bin A
7  CCCCCCCCC1OC(=O)[C@H](C)[C@H]1C(=O)O (stereo partly shown)  Staphylococcus aureus (ATCC #29213)        bin B

Exam item: assign `C=CCNC(=O)C1=C(C)C(=O)O[C@H]1CCCCCCCC` to the correct category.
bin C

----------
tested on: Enterococcus faecalis (ATCC #29212); test: Broth microdilution MIC; format: cell-based; settings: Enterococcus faecalis, ATCC29212; Mueller Hinton Broth, 24 hours; read-out: EF/MH (MIC)
Measure Name: MIC
Write the quantity with the unit trailing the number.

Solved cases (2 shown):
>>> print(df.to_string())
                                   compound        val
0  C=CCNC(=O)[C@@H]1C(=C)C(=O)O[C@H]1CCCCCCCC (racemic)   36 µg/mL
1  CCCCCCCCC1OC(=O)[C@H](C)[C@H]1C(=O)O (stereo partly drawn)  109 µg/mL

// switching to the query compound
I would be grateful if you could share the reported MIC for C=C1C(=O)O[C@@H](CCCCCCCC)[C@@H]1C(=O)NCC(=O)O (racemic) .
219 µg/mL
